These entries and their values trace back to ChEMBL document CHEMBL4033623.

# System: K562
# testName: Synergistic antiproliferative activity against human K562 cells at compound to DMXAA mol ratio of 1:1 after 48 hrs by CCK8 assay
# Format: functional, cell-based
# conditionInfo: K562, 48 h
pIC50: −log10 of the molar value.
readoutType: pIC50

O=c1c2cc(Br)ccc2oc2cc(O)cc(O)c12    4.99

[I] COc1cc(OC)c2c(=O)c3ccc(O)cc3oc2c1
[II] O=c1c2cc(Cl)ccc2oc2cc(O)cc(O)c12
[III] Cc1ccc2c(=O)c3c(O)cc(O)cc3oc2c1
Put the items in order so that reported pIC50 rises from first to last. Ranked list of labels, please, in the requested order.
I, III, II

====

# Test system: MCF7
# testName: Antiproliferative activity against human MCF7 cells after 48 hrs by CCK8 assay
# Format: functional, cell-based
# conditionInfo: MCF7, 48 h
readoutType: IC50 (µM)

[a] O=c1c2ccc(O)cc2oc2ccc(O)cc12
[b] COc1cc(O)c2c(=O)c3c(OC)cccc3oc2c1
[c] Cc1ccc2c(=O)c3c(O)cc(O)cc3oc2c1
// smallest IC50 at index 0, largest at the end Ranked list of labels, please, in the requested order.
c, b, a

====

# Tested on: COLO 320
# testName: Synergistic antiproliferative activity against human COLO320 cells at compound to DMXAA mol ratio of 1:1 after 48 hrs by CCK8 assay
# Format: functional, cell-based
# conditionInfo: COLO 320, 48 h
pIC50: −log10 of the molar value.
readoutType: pIC50

[a] COc1cc(OC)c2c(=O)c3ccc(O)cc3oc2c1
[b] O=c1c2cc(Br)ccc2oc2cc(O)cc(O)c12
[c] Cc1ccc2c(=O)c3c(O)cc(O)cc3oc2c1
// smallest pIC50 at index 0, largest at the end Ranked list of labels, please, in the requested order.
c, a, b
(c: 4.64, a: 4.99, b: 5.29)

====

# Tested on: MCF7
# testName: Antiproliferative activity against human MCF7 cells after 48 hrs by CCK8 assay
# Assay type: functional, cell-based
# conditionInfo: MCF7, 48 h
readoutType: IC50 (µM)

COc1cc(OC)c2c(=O)c3cc(Br)ccc3oc2c1    43.1
O=c1c2cc(Cl)ccc2oc2cc(O)cc(O)c12    1.2

[P] O=c1c2cc(Cl)ccc2oc2c(O)cccc12
[Q] O=c1c2ccc(O)cc2oc2cc(O)ccc12
[R] O=c1c2ccc(O)cc2oc2c(O)c(O)ccc12
[S] O=c1c2cc(Br)ccc2oc2cc(O)cc(O)c12
[T] O=c1c2cc(O)ccc2oc2cc(O)c(O)cc12
Rank descending by IC50. Ranked list of labels, please, in the requested order.
Q, R, T, P, S

[I] O=c1c2ccccc2oc2cc(O)cc(O)c12
[II] Cc1ccc2c(=O)c3cccc(CC(=O)O)c3oc2c1C [VADIMEZAN]
[III] O=c1c2cc(O)ccc2oc2ccc(O)cc12 [EUXANTHONE]
[IV] O=c1c2c(O)cccc2oc2cc(O)cc(O)c12
Put the items in order so that reported IC50 rises from first to last. Ranked list of labels, please, in the requested order.
I, IV, II, III
(I: 11.2 µM, IV: 31.6 µM, II: 54.4 µM, III: 128 µM)

====

# Tested on: MCF7
# testName: Antiproliferative activity against human MCF7 cells after 48 hrs by CCK8 assay
# Format: functional, cell-based
# conditionInfo: MCF7, 48 h
pIC50: −log10 of the molar value.
readoutType: pIC50

The examples below pair each entry with its known result.
O=c1c2cc(O)ccc2oc2cc(O)cc(O)c12    4.51
COc1cc(OC)c2c(=O)c3c(O)cccc3oc2c1    4.68
O=c1c2cc(Br)ccc2oc2c(O)cccc12    4.64
O=c1c2ccc(O)cc2oc2cc(O)cc(O)c12    3.95

[P] O=c1c2ccccc2oc2cc(O)ccc12
[Q] O=c1c2cccc(O)c2oc2cc(O)cc(O)c12
[R] O=c1c2ccc(O)cc2oc2c(O)cccc12
Put the items in order so that reported pIC50 rises from first to last. Ranked list of labels, please, in the requested order.
P, R, Q
(P: 3.92, R: 4.38, Q: 4.63)

====

# Test system: MCF7
# testName: Antiproliferative activity against human MCF7 cells after 48 hrs by CCK8 assay
# Type: functional, cell-based
# conditionInfo: MCF7, 48 h
readoutType: IC50 (µM)

COc1ccc2c(=O)c3cc(O)ccc3oc2c1    23.4
O=c1c2cc(Br)ccc2oc2c(O)c(O)ccc12    104
O=c1c2cc(O)c(O)cc2oc2cccc(O)c12    101
O=c1c2cc(O)ccc2oc2c(O)cccc12    13.4
Cc1ccc2c(=O)c3cccc(O)c3oc2c1    83.4
O=c1c2cc(Cl)ccc2oc2cccc(O)c12    53.1

[A] O=c1c2ccccc2oc2c(O)c(O)ccc12 [3,4-DIHYDROXYXANTHONE]
[B] COc1cc(OC)c2c(=O)c3cc(Cl)ccc3oc2c1
Identify the entry with the smaller IC50: A or B . # reply format: chosen label
B

====

# System: MCF7
# testName: Antiproliferative activity against human MCF7 cells after 48 hrs by CCK8 assay
# Format: functional, cell-based
# conditionInfo: MCF7, 48 h
Entries and their IC50 values follow.

The examples below pair each entry with its known result.
O=c1c2ccccc2oc2ccc(Cl)cc12    > 200 µM
O=c1c2cc(O)ccc2oc2c(O)c(O)ccc12    > 200 µM

May I ask what IC50 has been recorded for COc1cc(OC)c2c(=O)c3ccc(O)cc3oc2c1 ?
11.2 µM
